TEST_DESCRIPTION: MRT (0 to infinity) in mouse at 2 mg/kg, po by LC-MS/MS analysis
Type: ADME, organism-based
RUN_PARAMETERS: in vivo
VALUE_KIND: MRT inf (h)
Numbers only, in h.

[Q] Look at this compound and give its reported MRT inf. Cc1ccc(NC(=O)c2ccnc(C(F)(F)F)c2)cc1-c1ccc2c(c1)OC1(CCOCC1)NC2=O
[A] 3.59

====

TEST_DESCRIPTION: AUC(0 to t) in mouse at 1 mg/kg, iv by LC-MS/MS analysis
Format: ADME, organism-based
Set-up: dose 1 mg/kg, route iv
RUN_PARAMETERS: in vivo
VALUE_KIND: AUC(0-t) (ng·h/mL)
Give bare numbers, in ng·h/mL.

[Q] Please look up its AUC(0-t): Cc1ccc(NC(=O)c2ccnc(C(F)(F)F)c2)cc1-c1ccc2c(c1)OC1(CCOCC1)NC2=O
[A] 688

This collection of values is drawn from ChEMBL document CHEMBL5143623.
